Record set: IC50 | Dual specificity protein kinase TTK (Homo sapiens, UniProt P33981) | literature, multiple sources.
ATTRIBUTE_MEASURED: IC50

1) Cc1cc(-c2cnn3c(NC[C@H]4C[C@](C)(O)C4)cc(NC4CCCC4)nc23)ccc1C(=O)NC1CC1
5.3 nM
2) COc1cc(N2CCN(S(C)(=O)=O)CC2)ccc1Nc1ncc2cccc(-c3ccccc3)c2n1
5 nM
3) CCc1cccc(CC)c1NC(=O)c1nn(C)c2c1CCc1cnc(Nc3ccc(C(=O)N4CCC(N(C)C)CC4)cc3OC)nc1-2
19 nM
4) COc1cc(N2CCN(S(C)(=O)=O)CC2)ccc1Nc1nccc(NC2CCCCC2)n1
> 100 nM
5) CN1CCN(c2ccc(Nc3nc(-n4nc(N)c5ccccc54)c4cc[nH]c4n3)cc2)CC1
29 nM
6) COc1cc(N2CCOCC2)ccc1Nc1nc(-n2ccc3ccccc32)c2cc[nH]c2n1
132 nM
7) CCc1ccccc1Nc1nc(-n2nc(N)c3ccccc32)c2cc[nH]c2n1
338 nM
8) CCc1cccc(CC)c1NC(=O)c1nn(C)c2c1CCc1cnc(Nc3ccc(C(N)=O)cc3OC(F)(F)F)nc1-2
140 nM
9) Cn1nc(C(N)=O)c2c1-c1nc(Nc3ccccc3OC(F)(F)F)ncc1CC2
1220 nM
10) Cc1cc(-c2cnn3c(NCC4CCOCC4)cc(N[C@H]4CCCC[C@H]4O)nc23)ccc1C(=O)NC1CC1
2 nM
11) COc1cc(N2CCOCC2)ccc1Nc1ncc2cccc(-c3ccccc3)c2n1
12 nM
12) COc1cc(N2CCOCC2)ccc1Nc1nc(-c2cnn(C)c2)c2cc[nH]c2n1
34 nM
13) Cc1cc(-c2cnn3c(NC[C@H]4C[C@@](C)(O)C4)cc(NC4CCCC4)nc23)ccc1C(=O)NC1CC1
2.6 nM
14) COc1cc(N2CCOCC2)ccc1Nc1nc(-n2nc(N)c3ccccc32)c2cc[nH]c2n1
33 nM
15) CCOc1cc(-c2nncn2C)ccc1Nc1ncc2cc(C)nc(N3CCC(C)(C#N)C3)c2n1 (centres undefined)
3 nM
16) CCc1cccc(CC)c1NC(=O)c1nn(C)c2c1CCc1cnc(Nc3ccccc3OC)nc1-2
525 nM
17) Cc1cc(-c2cnn3c(NCCN4CCOCC4)nc(Oc4cccc(F)c4F)nc23)ccc1C(=O)NC1CC1
2.2 nM
18) Cc1cc(-c2cnn3c(NCC4CCOCC4)nc(NC4CCOCC4)nc23)ccc1C(=O)NC1CC1
9 nM
19) Nc1nn(-c2nc(Nc3ccc(N4CCOCC4)cc3)nc3[nH]ccc23)c2ccccc12
49 nM
